The reported numbers originate from patent US9012431B2.

tested on: CD-1 (Crl.) derived male mice; test: Phorbol Ester Induced Mouse Ear Edema Model; format: in vivo; settings: topical, 6 h, 0.067 mg/ear × 2 topical, 95% Ethanol, ear swelling 6 hours after PMA
Examples of compounds with documented inhibition in vivo at 0.067 mg follow.

Below: 3 compounds and their reported inhibition in vivo at 0.067 mg.
smiles structure | inhibition in vivo at 0.067 mg
N#Cc1ccc(Oc2ccc3c(c2)COB3O)nc1N1CCOCC1 | < 30%
CCOc1nc(Oc2ccc3c(c2)COB3O)ccc1C#N | 30 to 60%
N#Cc1ccc(Oc2ccc3c(c2)COB3O)nc1OCCO | < 30%

Now consider a different compound.
Reported inhibition in vivo at 0.067 mg for `COc1cc(Oc2ccc3c(c2)COB3O)ncc1C#N` : what is it?
< 30%

====

Tested on: TNF-α
Experiment: Cytokine assay, TNF-α release from PBMC
Format: cell-based
Conditions: Homo sapiens, PBMC, 24 h, 1 μg/mL LPS, supernatant at 24 hours
Experimental: The ability of the compounds described herein to inhibit pro-inflammatory cytokines or phsophodiesterases were tested. Frozen human peripheral blood mononucleocytes (PBMC) were thawed and centrifuged. Cryopreservation media was aspirated off of the cell pellet, and the cells were resuspended in fresh culture media (CM) comprising RPMI 1640 and 10% FBS in 96 well plates. Test article was dissolved in DMSO to form a 10 mM sample (DMSO, 100%). […]
Where a name gives a salt, the structure may show the parent alone.
property measured: IC50

Some solved entries appear below for comparison.
compound | value measured
N#Cc1ccc(Oc2ccc3c(c2)COB3O)c(OCc2ccccn2)c1 [D31, hydrochloride] | 1000 to 4000 nM
CC(=O)N1CCN(C(=O)c2ccc(Oc3ccc4c(c3)COB4O)cc2)CC1 [D80] | > 10000 nM
CN(C)CCOC(=O)c1ccc(Oc2ccc3c(c2)COB3O)cc1 [D75] | 1000 to 4000 nM
COC(=O)c1ccc(Oc2ccc3c(c2)COB3O)nc1 [D65] | < 1000 nM
N#Cc1ccc(Oc2ccc3c(c2)COB3O)nc1N1CCOCC1 [D102] | < 1000 nM
CN(C)c1nc(Oc2ccc3c(c2)COB3O)ccc1C#N [D95] | < 1000 nM

Item CC(C)S(=O)(=O)c1ccc(Oc2ccc3c(c2)COB3O)cc1 [D104] with TNF-α - IC50?
1000 to 4000 nM

Any idea what IC50 came out for CC(C)COc1nc(Oc2ccc3c(c2)COB3O)ccc1C#N [D136] on TNF-α?
< 1000 nM

Given the entry N#Cc1ccc(Oc2ccc3c(c2)COB3O)cc1C(=O)O [D8] , what IC50 was observed with TNF-α?
> 10000 nM

TNF-α / IC50 / COC(=O)c1ccc(Oc2ccc3c(c2)COB3O)cc1 [D71] : value?
1000 to 4000 nM

====

system: IL-10; experiment: Cytokine assay, IL-10 release from PBMC; assay type: cell-based; conditions: human PBMC, 20 ug/mL PHA, supernatant at 48 hours
pIC50: −log10 of the molar value.
property measured: pIC50

Below are worked cases with known answers.
compound | property measured | value measured
CNc1nc(Oc2ccc3c(c2)COB3O)ccc1C#N | pIC50 | < 5.00
O=C1NC(=O)c2cc(Oc3ccc4c(c3)COB4O)ccc21 | pIC50 | > 6.00
N#Cc1ccc(Oc2ccc3c(c2)COB3O)cc1C(F)(F)F | pIC50 | < 5.00
CN(C)c1nc(Oc2ccc3c(c2)COB3O)ccc1C#N | pIC50 | 5.40 to 6.00
CN(CCO)c1ccc(C#N)c(Oc2ccc3c(c2)COB3O)n1 | pIC50 | > 6.00
CC(C)OC(=O)c1ccc(Oc2ccc3c(c2)COB3O)nc1 | pIC50 | > 6.00
COC(=O)c1cc(Oc2ccc3c(c2)COB3O)ccc1C(N)=O | pIC50 | > 6.00
CC(C)OC(=O)c1ccc(Oc2ccc3c(c2)COB3O)c(F)c1 | pIC50 | 5.00 to 5.40

Turning now to a further record.
Consider the compound `CC(C)OC(=O)c1ccc(Oc2ccc3c(c2)COB3O)cc1` and give its measured pIC50.
5.40 to 6.00

====

Form field: melting point (one value per entry).

compound | property measured | value measured
CCOC(=O)c1ccc(Oc2ccc3c(c2)COB3O)cc1OC [D35] | melting point | 64.9 to 65.2 °C
CCOC(=O)c1nc(Oc2ccc3c(c2)COB3O)ccc1C#N [D45] | melting point | 204 to 206 °C

Give the measured melting point of `N#Cc1ccc(Oc2ccc(B(O)O)cc2)cc1` .
194 to 198 °C

For COc1cc(Oc2ccc3c(c2)COB3O)ccc1C(=O)O [D36] , what is its reported melting point?
109.6 to 110.1 °C

Report melting point for COC(=O)c1ccc(Oc2ccc3c(c2)COB3O)nc1C(=O)OC [D44] please.
67.5 to 69.2 °C

Which melting point value belongs to CCOC(=O)c1ccc(Oc2ccc3c(c2)COB3O)nc1 [D60] ?
110 to 113 °C

====

// reported inhibition at 10 µM per item
system: IL-5; experiment: Cytokine assay, IL-5 release from PBMC; format: cell-based; conditions: human PBMC, 20 ug/mL PHA, 48 hours, 10 μM
Counter-ions that a name gives are not always drawn.

compound | inhibition at 10 µM
CC1CCN(C(=O)COc2cc(Oc3ccc4c(c3)COB4O)ccc2C#N)CC1 | 60 to 90%
N#Cc1ccc(Oc2ccc3c(c2)COB3O)c(CN)c1 [D138, hydrochloride] | 60 to 90%
N#Cc1ccc(Oc2ccc3c(c2)COB3O)cc1OCC(=O)O | < 30%
O=C(O)c1ccc(Oc2ccc3c(c2)COB3O)nc1 | 30 to 60%
N#Cc1cc(CNC=O)ccc1Oc1ccc2c(c1)COB2O | 30 to 60%
NCc1ccc(Oc2ccc3c(c2)COB3O)cc1 | 30 to 60%

// next entry
Endpoint output: inhibition at 10 µM of `C[NH+]1CCN(C(=O)COc2cc(Oc3ccc4c(c3)COB4O)ccc2C#N)CC1` . Value?
60 to 90%

====

test system: TNF-α; assay: Cytokine assay, TNF-α release from PBMC; assay type: cell-based; conditions: Homo sapiens, PBMC, 24 h, 1 μg/mL LPS, supernatant at 24 hours
pIC50: −log10 of the molar value.
Here, each record is paired with measured pIC50 data.

Observe how each entry below is paired with its result.
smiles structure | assayed system | value measured
Cc1cc(Oc2ccc3c(c2)COB3O)ccc1C#N | TNF-α | > 6.00
N#Cc1ccc(Oc2ccc3c(c2)COB3O)nc1OCC(F)F | TNF-α | > 6.00
COc1nc(Oc2cc3c(cc2F)B(O)OC3)ccc1C#N | TNF-α | > 6.00

Reported pIC50, compound `COC(=O)c1cc(Oc2ccc3c(c2)COB3O)ccc1C(N)=O` : ____
> 6.00

What value of pIC50 has been reported for the following compound? `N#Cc1cnc(Oc2ccc3c(c2)COB3O)c(O)c1`
> 6.00

// query pIC50 value for entry `OCc1ccc(Oc2ccc3c(c2)COB3O)nc1`
5.40 to 6.00

Item under review: `CN1CCN(Cc2cc(C#N)ccc2Oc2ccc3c(c2)COB3O)CC1` . Reported pIC50?
> 6.00

Dear colleague, I am looking for the recorded pIC50 of the following compound: `CN(CCO)c1ccc(C#N)c(Oc2ccc3c(c2)COB3O)n1`
> 6.00

If you can, please state the reported pIC50 value of `CCOC(=O)c1ccc(Oc2ccc3c(c2)COB3O)c(F)c1` .
5.40 to 6.00

# pIC50 lookup, item `N#Cc1ccc(Oc2ccc3c(c2)COB3O)nc1OCCO`
> 6.00

Which pIC50 reading was recorded for the compound `N#Cc1ccc(Oc2ccc3c(c2)COB3O)nc1OC1CCCC1` ?
> 6.00

====

In this section, each of the molecules is paired with its reported IC50.
system: TNF-α; assay: Cytokine assay, TNF-α release from PBMC; assay type: cell-based; details: Homo sapiens, PBMC, 24 h, 1 μg/mL LPS, supernatant at 24 hours
Counter-ions that a name gives are not always drawn.

# count of solved cases: 6
molecule | IC50
COc1cc(Oc2ccc3c(c2)COB3O)ncc1C#N | < 1000 nM
N#Cc1ccc(Oc2ccc3c(c2)COB3O)c(CN2CCOCC2)c1 [D32, hydrochloride] | < 1000 nM
N#Cc1ccc(Oc2ccc3c(c2)COB3O)c(OCC2CC2)c1 | < 1000 nM
CCOC(=O)c1ccc(Oc2ccc3c(c2)COB3O)c(OC)c1 | < 1000 nM
CCOC(=O)c1cc(F)c(Oc2ccc3c(c2)COB3O)cc1Cl | < 1000 nM
COc1ccc(Oc2ccc3c(c2)B(O)OC3)cc1 | > 10000 nM

From here, focus on the item given below.
// returns reported IC50 for input `CN(C)Cc1cc(C#N)ccc1Oc1ccc2c(c1)COB2O`
1000 to 4000 nM
